Conditions: 293.15 K; 101.33 kPa; Liquid; Concentric cylinders viscometry
Value type: viscosity (mPa·s)

Worked examples follow.
Compound	Value type	Unit abbrev	Recorded number
CCCCCCCC/C=C\CCCCCCCC(=O)[O-].CCCCCCCC[N+](CCCCCCCC)(CCCCCCCC)CCCCCCCC [tetraoctylammonium oleate]	viscosity	mPa·s	1689.3
CCCCCCCC/C=C\CCCCCCCC(=O)[O-].CCCCCC[N+](CCCCCC)(CCCCCC)CCCCCC [tetrahexylammonium oleate]	viscosity	mPa·s	2509.9

1 = CCCCCCCC/C=C\CCCCCCCC(=O)[O-].CCCCCCCC[N+](C)(CCCCCCCC)CCCCCCCC [methyltrioctylammonium oleate]
2 = CCCCC(CC)CCC(=O)[O-].CCCCCCCC[N+](C)(CCCCCCCC)CCCCCCCC [methyltrioctylammonium 4-ethyloctanoate]
Field: lower viscosity | Options: 1 / 2 Give the label under which the chosen entry appears.
1
(1: 2934 mPa·s, 2: 5743.4 mPa·s)
